- test-protocol: Pharmacokinetics in female CD1 mice
- Type: in vivo, mouse
- test-parameters: female, CD1, mouse, plasma, iv, 3 mg/kg, IV 3 mg/kg, mouse

{"compound": "O=C1CCC(N2Cc3cc(Nc4noc5ccccc45)ccc3C2=O)C(=O)N1 (stereo not shown) [SJ3149]", "unit-abbrev": "min", "half-life": 46.2}

====

- Tested on: 102 cell lines
- test-protocol: Oncolines viability of 120 reference anti-cancer agents
- Type: cell-based, human
- test-parameters: HuTu 80; Duodenal adenocarcinoma
pIC50: −log10 of the molar value.

{"compound": "COc1ccc(C2=N[C@@H](c3ccc(Cl)cc3)[C@@H](c3ccc(Cl)cc3)N2C(=O)N2CCNC(=O)C2)c(OC(C)C)c1 [Nutlin-3a]", "pIC50": 5.41}

====

- System: 102 cell lines
- test-protocol: Oncolines viability of 120 reference anti-cancer agents
- Assay type: cell-based, human
- test-parameters: cell line A388, Squamous cell carcinoma, TP53 Mutant

{"item-smiles": "COc1ccc(C2=N[C@@H](c3ccc(Cl)cc3)[C@@H](c3ccc(Cl)cc3)N2C(=O)N2CCNC(=O)C2)c(OC(C)C)c1", "IC50": "> 31.6 µM"}

====

- Tested on: 115 human cancer cell lines
- test-protocol: Oncolines panel cell viability assay (ATPlite, 72 h)
- Format: cell-based
- test-parameters: Homo sapiens, SW900, SW900, Squamous cell lung carcinoma, TP53 Mutant; read-out: IC50
observation-type: IC50 (nM)

{"molecule": "O=C1CCC(N2Cc3cc(Nc4noc5ccccc45)ccc3C2=O)C(=O)N1 (stereo not shown)", "experimental-system": "115 human cancer cell lines", "observation-type": "IC50", "unit-abbrev": "nM", "number": 419}

====

- test-protocol: Pharmacokinetics in female CD1 mice
- Type: in vivo, mouse
- test-parameters: female, CD1, plasma; IV 3 mg/kg, mouse; read-out: C0/Cmax (C0 back extrapolated)
observation-type: Cmax (ng/mL)

{"compound": "O=C1CCC(N2Cc3cc(Nc4noc5ccccc45)ccc3C2=O)C(=O)N1 (stereo not shown)", "number": 4510}

====

- System: RPMI-7951
- test-protocol: cells
- Design: Oncolines panel cell viability, ATPlite 1Step luminescence, duplicate 9-point dose response, IC50
- test-parameters: Homo sapiens, RPMI-7951; 72 h viability; read-out: SJ3149
pIC50: −log10 of the molar value.

{"molecule": "O=C1CCC(N2Cc3cc(Nc4noc5ccccc45)ccc3C2=O)C(=O)N1 (stereo not shown)", "experimental-system": "RPMI-7951", "pIC50": "< 4.50"}

====

- Tested on: MDR1 (P-gp)
- test-protocol: MDCKII-MDR1 cell-based permeability assay
- Format: in vitro ADME
- test-parameters: dog, MDCK-MDR1, pH 7.4; apical to basolateral; read-out: MDCK-MDR1 AB
observation-type: Papp A→B at 1 h, 10 μmol/L (×10⁻⁶ cm/s)

{"compound": "O=C1CCC(N2Cc3cc(Nc4noc5ccccc45)ccc3C2=O)C(=O)N1 (stereo not shown)", "unit-abbrev": "×10⁻⁶ cm/s", "number": 27.7}

====

- Test system: 102 cell lines
- test-protocol: Oncolines viability of 120 reference anti-cancer agents
- Assay type: cell-based, human
- test-parameters: Hs 746T; Gastric adenocarcinoma
pIC50: −log10 of the molar value.

{"item-smiles": "COc1ccc(C2=N[C@@H](c3ccc(Cl)cc3)[C@@H](c3ccc(Cl)cc3)N2C(=O)N2CCNC(=O)C2)c(OC(C)C)c1", "pIC50": "< 4.50"}

====

- System: 102 cell lines
- test-protocol: Oncolines viability of 120 reference anti-cancer agents
- Format: cell-based, human
- test-parameters: SU-DHL-6, Diffuse large B-cell lymphoma, TP53 Mutant
pIC50: −log10 of the molar value.
observation-type: pIC50

{"compound": "COc1ccc(C2=N[C@@H](c3ccc(Cl)cc3)[C@@H](c3ccc(Cl)cc3)N2C(=O)N2CCNC(=O)C2)c(OC(C)C)c1 [Nutlin-3a]", "experimental-system": "102 cell lines", "observation-type": "pIC50", "number": 4.63}

====

- System: 115 human cancer cell lines
- test-protocol: Oncolines panel cell viability assay (ATPlite, 72 h)
- Type: cell-based
- test-parameters: Homo sapiens, B-cell, RL, Diffuse large B-cell lymphoma, TP53 Mutant; read-out: IC50
- From the text: To evaluate the compound’s effect and potential therapeutic application across a diverse range of human cancers, we profiled SJ3149 in Oncolines® panel consisting of 115 human cancer cell lines, of which 86 were solid tumor and 29 hematologic cell lines, including MOLM-13. Effect on cell viability was monitored using ATPLite™ (Perkin Elmer), which measures intracellular ATP content as an indirect readout of cell number, like CellTiter Glo. […]

{"compound": "O=C1CCC(N2Cc3cc(Nc4noc5ccccc45)ccc3C2=O)C(=O)N1 (stereo not shown)", "IC50 / µM": 27.2}

====

- test-protocol: Plasma protein binding assay (RED), human
- Type: in vitro ADME
- test-parameters: human, plasma

{"molecule": "O=C1CCC(N2Cc3cc(Nc4noc5ccccc45)ccc3C2=O)C(=O)N1 (stereo not shown)", "fraction unbound at 4 h, 10 µM": 0.023}

====

- Test system: 115 human cancer cell lines
- test-protocol: Oncolines panel cell viability assay (ATPlite, 72 h)
- Format: cell-based
- test-parameters: Homo sapiens, MOLM-13, MOLM-13 cells, AML; read-out: IC50
pIC50: −log10 of the molar value.
observation-type: pIC50

{"compound": "O=C1CCC(N2Cc3cc(Nc4noc5ccccc45)ccc3C2=O)C(=O)N1 (stereo not shown) [SJ3149]", "experimental-system": "115 human cancer cell lines", "observation-type": "pIC50", "number": 8.38}

====

- Tested on: 102 cell lines
- test-protocol: Oncolines viability of 120 reference anti-cancer agents
- Format: cell-based, human
- test-parameters: cell line AN3 CA, Endometrial adenocarcinoma, TP53 Mutant

{"item-smiles": "COc1ccc(C2=N[C@@H](c3ccc(Cl)cc3)[C@@H](c3ccc(Cl)cc3)N2C(=O)N2CCNC(=O)C2)c(OC(C)C)c1", "IC50": "> 31.6 µM"}

====

- test-protocol: Pharmacokinetics in female CD1 mice
- Assay type: in vivo, mouse
- test-parameters: female, CD1, mouse, plasma, po, 50 mg/kg, PO 50 mg/kg, mouse

{"molecule": "O=C1CCC(N2Cc3cc(Nc4noc5ccccc45)ccc3C2=O)C(=O)N1 (stereo not shown)", "half-life": "~3 h"}

====

- Tested on: 102 cell lines
- test-protocol: Oncolines viability of 120 reference anti-cancer agents
- Assay type: cell-based, human
- test-parameters: SR, Anaplastic large cell lymphoma, TP53 Mutant
pIC50: −log10 of the molar value.

{"compound": "COc1ccc(C2=N[C@@H](c3ccc(Cl)cc3)[C@@H](c3ccc(Cl)cc3)N2C(=O)N2CCNC(=O)C2)c(OC(C)C)c1 [Nutlin-3a]", "pIC50": 5.69}

====

- test-protocol: Metabolic stability in cryopreserved hepatocytes, mouse
- Assay type: in vitro ADME
- test-parameters: mouse, cryopreserved hepatocytes; read-out: Hepatocyte stability t1/2

{"compound": "O=C1CCC(N2Cc3cc(Nc4noc5ccccc45)ccc3C2=O)C(=O)N1 (stereo not shown)", "half-life at 1 µM": "> 3.6 h"}

====

- Tested on: 102 cell lines
- test-protocol: Oncolines viability of 120 reference anti-cancer agents
- Assay type: cell-based, human
- test-parameters: OVCAR-3, High grade ovarian serous adenocarcinoma, TP53 Mutant

{"item-smiles": "COc1ccc(C2=N[C@@H](c3ccc(Cl)cc3)[C@@H](c3ccc(Cl)cc3)N2C(=O)N2CCNC(=O)C2)c(OC(C)C)c1", "experimental-system": "102 cell lines", "IC50": "> 31.6 µM"}

====

- Tested on: SW620
- test-protocol: cells
- Set-up: Oncolines panel cell viability, ATPlite 1Step luminescence, duplicate 9-point dose response, IC50
- test-parameters: Homo sapiens, SW-620; 72 h viability; read-out: SJ3149
pIC50: −log10 of the molar value.

{"molecule": "O=C1CCC(N2Cc3cc(Nc4noc5ccccc45)ccc3C2=O)C(=O)N1 (stereo not shown) [SJ3149]", "pIC50": "< 4.50"}

====

- Test system: 102 cell lines
- test-protocol: Oncolines viability of 120 reference anti-cancer agents
- Type: cell-based, human
- test-parameters: FaDu; Hypopharyngeal squamous cell carcinoma
observation-type: IC50

{"molecule": "COc1ccc(C2=N[C@@H](c3ccc(Cl)cc3)[C@@H](c3ccc(Cl)cc3)N2C(=O)N2CCNC(=O)C2)c(OC(C)C)c1 [Nutlin-3a]", "result": "> 31.6 µM"}

====

- Tested on: 102 cell lines
- test-protocol: Oncolines viability of 120 reference anti-cancer agents
- Assay type: cell-based, human
- test-parameters: NCI-H661; Large cell lung carcinoma
pIC50: −log10 of the molar value.

{"molecule": "COc1ccc(C2=N[C@@H](c3ccc(Cl)cc3)[C@@H](c3ccc(Cl)cc3)N2C(=O)N2CCNC(=O)C2)c(OC(C)C)c1 [Nutlin-3a]", "pIC50": "< 4.50"}
